target.entity: T1, 4H3782-bH
T1 chain: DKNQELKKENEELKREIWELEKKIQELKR
protocol.summary: two-hybrid library CCNG1;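 further: natural log of median RNA to DNA barcode read ratio; higher means stronger binding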
value.type: interaction score

Worked cases, answers included:
binder: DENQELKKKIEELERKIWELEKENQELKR [4H1828-bH]
interaction score: 0.484
//
binder: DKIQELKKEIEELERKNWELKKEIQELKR [4H2618-bH]
interaction score: -0.244
//
binder: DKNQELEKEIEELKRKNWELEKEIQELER [4H3185-bH]
interaction score: -0.522
//
binder: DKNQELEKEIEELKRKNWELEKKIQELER [4H3189-bH]
interaction score: -0.496
//
binder: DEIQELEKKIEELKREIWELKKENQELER [4H331-bH]
interaction score: -0.0752

I. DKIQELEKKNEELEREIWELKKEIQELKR [4H2442-bH]
II. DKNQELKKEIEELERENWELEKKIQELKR [4H3606-bH]
Endpoint returns whichever of I and II has the numerically higher interaction score. Answer = label. I
